Every entry's value here was drawn from paper PMC4052546.

- assay.summary: Pharmacokinetics of AS and DHA in rat plasma after single and multiple intravenous AS injections (automated blood sampler, LC-MS/MS);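 further: blood drawn through a jugular vein catheter by an automated sampling system, plasma drug levels measured by LC-MS/MS with positive electrospray ionization against standard curves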
- Type: in vivo, Sprague-Dawley rats
- details: male, Sprague-Dawley, rat, plasma, iv, 20 mg/kg, Chinese formulation (AS/NaHCO3), 20 mg/kg i.v. daily for 3 days, male rats, Period 1, Day 3; read-out: AUCinfininty
readout.label: AUC (ng·h/mL)

a: C[C@H]1[C@H](OC(=O)CCC(=O)O)O[C@@H]2O[C@@]3(C)CC[C@H]4[C@H](C)CC[C@@H]1[C@@]24OO3 [AS, artesunate]
b: C[C@H]1[C@@H](O)O[C@@H]2O[C@@]3(C)CC[C@H]4[C@H](C)CC[C@@H]1[C@@]24OO3 [DHA, dihydroartemisinin]
Field: entry with larger AUC (options a / b ). Give the chosen item's label as your response.
b
(b: 994 ng·h/mL, a: 617 ng·h/mL)
